experiment: n-Octanol-buffer partition co-efficient, log D of the compound at pH 7.4 incubated overnight by shake-flask method; assay type: physicochemical
logD listing for selected molecules.

[
  {
    "COMPOUND": "C[C@H](CCC(=O)N[C@H](CC(=O)O)Cc1c[nH]c2ccccc12)[C@H]1CC[C@H]2[C@@H]3CC[C@@H]4C/C(=N/O)CC[C@]4(C)[C@H]3CC[C@]12C",
    "logD": 4.23
  },
  {
    "COMPOUND": "C[C@H](CCC(=O)N[C@H](CC(=O)O)Cc1c[nH]c2ccccc12)[C@H]1CC[C@H]2[C@@H]3CC[C@@H]4C[C@H](OC(N)=O)CC[C@]4(C)[C@H]3CC[C@]12C",
    "logD": 5.01
  }
]
